Test: Cytotoxicity against rat ASK cells assessed as reduction in cell viability by SRB assay
Assay type: functional, cell-based
Parameter: IC50. Scope: all listed entries.

CC(=O)O[C@@H]1CC[C@]2(C)[C@H](CC[C@]3(CNc4ccccc4F)O[C@H](C4=CCOC4=O)C[C@H]32)[C@]1(C)COC(c1ccccc1)(c1ccccc1)c1ccccc1; > 50 µM
CC(=O)O[C@@H]1CC[C@]2(C)[C@H](CC[C@]3(CNc4ccc(Br)cc4)O[C@H](C4=CCOC4=O)C[C@H]32)[C@]1(C)CO[Si](C(C)C)(C(C)C)C(C)C; 29.7 µM
CC(=O)O[C@@H]1CC[C@]2(C)[C@H](CC[C@]3(CNc4ccc(Br)cc4)O[C@H](C4=CCOC4=O)C[C@H]32)[C@]1(C)CO[Si](c1ccccc1)(c1ccccc1)C(C)(C)C; > 50 µM
Cc1c2ccncc2c(C)c2c1[nH]c1ccccc12; 2.17 µM
CC(=O)O[C@@H]1CC[C@]2(C)[C@H](CC[C@]3(CNc4ccccc4F)O[C@H](C4=CCOC4=O)C[C@H]32)[C@]1(C)CO[Si](C(C)C)(C(C)C)C(C)C; 8.05 µM

Consider the record given below.
Ask: So what does the record say about IC50 for CC(=O)O[C@@H]1CC[C@]2(C)[C@H](CC[C@]3(CNc4ccccc4)O[C@H](C4=CCOC4=O)C[C@H]32)[C@]1(C)CO[Si](c1ccccc1)(c1ccccc1)C(C)(C)C ?
Result: 9.32 µM
